Below is a list of entries, each paired with its recorded Ki value.
- target under test: T1, Human EphA2 (Ecto) (Human, UniProt P29317 24-537)
- T1 construct: extracellular domain
- T1 sequence (P29317 24-537): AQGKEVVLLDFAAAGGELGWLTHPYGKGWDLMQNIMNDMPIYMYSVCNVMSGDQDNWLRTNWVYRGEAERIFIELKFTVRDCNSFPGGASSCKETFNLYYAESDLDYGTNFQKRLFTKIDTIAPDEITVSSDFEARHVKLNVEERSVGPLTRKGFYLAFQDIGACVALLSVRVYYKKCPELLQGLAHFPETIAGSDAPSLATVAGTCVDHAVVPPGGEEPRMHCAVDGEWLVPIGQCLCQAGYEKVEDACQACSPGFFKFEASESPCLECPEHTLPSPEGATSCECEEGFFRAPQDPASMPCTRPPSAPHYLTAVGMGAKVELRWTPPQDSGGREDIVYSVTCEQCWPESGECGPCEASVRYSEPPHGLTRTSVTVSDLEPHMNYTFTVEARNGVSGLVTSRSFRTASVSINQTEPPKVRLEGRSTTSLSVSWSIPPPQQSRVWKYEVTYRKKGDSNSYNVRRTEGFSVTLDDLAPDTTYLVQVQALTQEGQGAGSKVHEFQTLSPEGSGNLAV
- test description: FP competition; competitor Compound 66
Numbered stars: 1 amine (or outer) side, 2 acyl side, 3 side chain; on linkers, the order of the positions; unused ones are H or OH. Bridge positions count the residues as written; N and C are the ends. Square brackets hold non-standard residues; d marks the D form. Ends that are not written are not given here. 1Nal = N[C@@H](Cc1cccc2ccccc12)C(=O)O; TBMB = c1c(C[*:1])cc(C[*:3])cc1C[*:2]; Tle = CC(C)(C)[C@H](N)C(=O)O; Aib = CC(C)(N)C(=O)O; Sar = CNCC(=O)O
Kindly provide the numeric value in nM only, without the unit symbol.

[Q] I would be grateful if you could share the reported Ki for ACRVSPEYCPFGPEWCA (linker 2-9-16 via TBMB) [Compound 37] .
[A] 61.2

[Q] I would be grateful if you could share the reported Ki for [Sar][Sar]ACPWGPFWCPVNRAGC (linker 4-11-18 via TBMB) [Compound 104] .
[A] 194

[Q] I would be grateful if you could share the reported Ki for [Sar][Sar]ACP[1Nal]G[Aib]FWCP[Tle]NRPGC (linker 4-11-18 via TBMB) [Compound 126] .
[A] 19
